- SYSTEM UNDER TEST: Glucose-dependent insulinotropic receptor (Homo sapiens, UniProt Q8TDV5)
- Sequence (Q8TDV5 whole entry): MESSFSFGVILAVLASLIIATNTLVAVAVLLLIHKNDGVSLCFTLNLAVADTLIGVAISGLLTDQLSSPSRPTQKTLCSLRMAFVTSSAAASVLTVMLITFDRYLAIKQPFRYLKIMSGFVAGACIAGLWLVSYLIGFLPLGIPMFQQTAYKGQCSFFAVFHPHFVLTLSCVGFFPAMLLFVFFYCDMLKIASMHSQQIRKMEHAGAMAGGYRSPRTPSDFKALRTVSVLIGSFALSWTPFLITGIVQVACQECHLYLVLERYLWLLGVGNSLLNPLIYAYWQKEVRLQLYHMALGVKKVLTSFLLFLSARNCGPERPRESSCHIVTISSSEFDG
- PROTOCOL: Agonist activity at human GPR119 expressed in CHO-K1 cells preincubated for 5 hrs followed by substrate addition measured after 2 hrs by fluorescence based assay
Each entry below carries its reported EC50.
The answer is to be given in nM; state only the numeric part.

Below: 2 compounds and their reported EC50.
[
  {
    "COMPOUND": "CCc1cnc(N2CCC(N(CC)c3ncnc4c(-c5ccc(S(C)(=O)=O)cc5)csc34)CC2)nc1",
    "EC50, nM": 15
  },
  {
    "COMPOUND": "CS(=O)(=O)c1ccc(-c2csc3c(N4CCC(c5nc(C6CCCC6)no5)CC4)ncnc23)cc1",
    "EC50, nM": 8.7
  }
]

Measured EC50, CS(=O)(=O)c1ccc(-c2csc3c(OC4CCN(c5nc(C6CCCC6)no5)CC4)ncnc23)cc1 : 5.6

EC50 in this record for CCCc1noc(N2CCC(Oc3ncnc4c(-c5ccc(S(C)(=O)=O)cc5F)csc34)CC2)n1 : 2.1

EC50 reported for this compound CN(c1ncnc2c(-c3ccc(S(C)(=O)=O)cc3)csc12)C1CCN(C(=O)OC(C)(C)C)CC1 : 33.8

For this compound ( CS(=O)(=O)c1ccc(-c2csc3c(N4CCC(c5nc(C6CC6)no5)CC4)ncnc23)cc1 ), measured EC50 is 23.9

# EC50 (compound: CC(C)(C)OC(=O)N1CCC(Oc2ncnc3c(-c4ccc(S(C)(=O)=O)cc4F)csc23)CC1 ) is 1.4

Short answer for CC(C)c1noc(N2CCC(Oc3ncnc4c(-c5ccc(S(C)(=O)=O)cc5)csc34)C2)n1 (stereo not given) : EC50 was 754

Origin of values: ChEMBL document CHEMBL5620399
